Target: beta-catenin/TCF4 engagement (Homo sapiens)
Construct: expressed in transfected cells; host or cells: HEK293
Sequence (P35222 whole entry): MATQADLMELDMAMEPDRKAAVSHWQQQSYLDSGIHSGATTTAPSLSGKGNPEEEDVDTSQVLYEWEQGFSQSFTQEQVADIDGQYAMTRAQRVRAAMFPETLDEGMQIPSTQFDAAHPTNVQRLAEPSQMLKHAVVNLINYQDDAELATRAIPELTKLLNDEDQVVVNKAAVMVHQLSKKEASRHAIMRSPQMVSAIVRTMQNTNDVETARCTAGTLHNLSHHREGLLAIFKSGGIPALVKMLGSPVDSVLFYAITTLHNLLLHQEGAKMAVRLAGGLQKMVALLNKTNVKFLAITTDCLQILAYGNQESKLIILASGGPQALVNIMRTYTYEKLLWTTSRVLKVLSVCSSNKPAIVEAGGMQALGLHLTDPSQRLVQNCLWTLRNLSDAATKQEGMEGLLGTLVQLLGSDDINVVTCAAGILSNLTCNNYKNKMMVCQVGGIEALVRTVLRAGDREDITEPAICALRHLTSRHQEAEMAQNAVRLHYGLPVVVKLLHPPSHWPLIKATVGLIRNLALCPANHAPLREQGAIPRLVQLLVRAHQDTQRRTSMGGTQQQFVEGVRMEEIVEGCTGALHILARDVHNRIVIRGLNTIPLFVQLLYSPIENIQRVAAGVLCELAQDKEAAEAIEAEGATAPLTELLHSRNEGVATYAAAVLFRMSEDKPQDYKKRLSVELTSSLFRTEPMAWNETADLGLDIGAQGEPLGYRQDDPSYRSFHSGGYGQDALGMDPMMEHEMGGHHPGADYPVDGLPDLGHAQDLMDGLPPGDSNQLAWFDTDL
Experiment: Nano-BRET target engagement assay (B-cat-Halo & TCF4-Luc in HEK293 cells)
Format: cell-based
Conditions: read-out: NanoBRET Abs IC50
quantityMeasured: IC50
Quick note: unit goes after the number.

compound | quantityMeasured | measured
CC(=O)N1CCC[C@]12CC=CCCCC1(CCCC=CCCCOC(=O)N3CC[C@@](C(=O)N[C@@H](Cc4ccsc4)C(=O)N[C@@H](Cc4csc5ccccc45)C(=O)N[C@@H](CCC(N)=O)C(=O)NCCCCCCN)(C3)NC(=O)[C@H](CC(N)=O)NC(=O)[C@H](Cc3ccccc3)NC(=O)[C@H](C)NC(=O)[C@H](C)NC(=O)[C@H](CC(=O)O)NC(=O)[C@H](CC(=O)O)NC1=O)NC(=O)[C@H](CC(C)(C)C)NC(=O)[C@H](CC(=O)O)NC2=O (stereo partly drawn) [I-881] | IC50 | 23.8 µM
CC(=O)N1CCC[C@]12CC=CCCCC1(CCCC=CCCCOC(=O)N3CC[C@@](C(=O)N[C@@H](Cc4ccsc4)C(=O)N[C@@H](Cc4csc5ccccc45)C(=O)N[C@@H](CC(N)=O)C(N)=O)(C3)NC(=O)[C@H](CC(C)C)NC(=O)[C@H](Cc3ccccc3)NC(=O)[C@H](C)NC(=O)[C@H](C)NC(=O)[C@H](Cc3cccc(C(=O)O)c3)NC(=O)[C@H](CC(=O)O)NC1=O)NC(=O)[C@H](CC(C)(C)C)NC(=O)[C@H](CC(=O)O)NC2=O (stereo partly drawn) | IC50 | 2.8 µM

Turning now to a further record.
Query :: Please report the recorded IC50 for CC(=O)N1CCC[C@]12CC=CCCCC1(CCCC=CCCCOC(=O)N3CC[C@@](C(=O)N[C@@H](Cc4ccccc4Cl)C(=O)N[C@@H](Cc4csc5ccccc45)C(=O)N[C@@H](Cc4c[nH]cn4)C(N)=O)(C3)NC(=O)[C@H](CC(N)=O)NC(=O)[C@H](Cc3ccccc3)NC(=O)[C@H](C)NC(=O)[C@H](C)NC(=O)[C@H](CC(=O)O)NC(=O)[C@H](CC(=O)O)NC1=O)NC(=O)[C@H](CC(C)(C)C)NC(=O)[C@H](CC(=O)O)NC2=O (stereo partly drawn) .
Result :: 14.5 µM
